The reported numbers originate from the supplement of paper PMC7156485.

- System: TDF
- assay-protocol: cell number relative to DMSO (% of DMSO); higher = more cells (less growth inhibition / toxicity)
- stated-conditions: concentration: 10 µM; 24 h
Exercise: state measured cell number for each of the compounds provided.

compound	cell number
CN(C)Cc1c[nH]c2ccccc12	99.3
COC1=C(OC)C(=O)C(=C2C(C)=C(C(=O)O)NC(c3ccc4c(n3)C(=O)C(N)=C(OC)C4=O)=C2N)C=C1	5.53
COc1ccc(O)c(C(C)(C)C)c1	107
CCCN1CCCC2Cc3nc(N)ncc3CC21.Cl.Cl (centres undefined) [Quinelorane dihydrochloride]	113
CC(=O)C1CCC2C3CCC4CC(O)CCC4(C)C3C(=O)CC12C (centres undefined)	108

Consider the following items and state reported cell number for each.
1. CN(C)C(=O)Oc1cc(OC(=O)N(C)C)cc(C(O)CNC(C)(C)C)c1.Cl (centres undefined)
2. NC(=S)NN=Cc1coc2ccccc2c1=O.[Cl][Cu][Cl]
3. C1CCC(NC2CCCCC2)CC1

104
86
102

Consider the following items and state reported cell number for each.
1. C[N+](C)(C)CCCCCCCCCC[N+](C)(C)C
2. CC(O)C(C)OC(=O)C1CC2c3cccc4c3c(cn4C(C)C)CC2N(C)C1.O=C(O)C=CC(=O)O (centres undefined) [LY-53,857 maleate]

1: 118; 2: 107

* * *

- Test system: HCC1569
- assay-protocol: cell number relative to DMSO (% of DMSO); higher = more cells (less growth inhibition / toxicity)
- stated-conditions: concentration: 10 µM; 24 h
cell number of 100 or higher: 1. Under 100: 0.

Past entries and their recorded results:
compound	discrete-label
CC1OC(OC2CC(O)C3(CO)C4C(O)CC5(C)C(C6COC(=O)C6)CCC5(O)C4CCC3(O)C2)C(O)C(O)C1O (stereo unspecified) [Dihydroouabain]	0
CCNC(=O)C[C@@H]1N=C(c2ccc(Cl)cc2)c2cc(OC)ccc2-n2c(C)nnc21	0
COC1=CC(=O)OC(C=Cc2ccc3c(c2)OCO3)C1 (stereo unspecified)	1

Is it the case that COc1ccc2c(c[n+](C)c3c4cc5c(cc4ccc23)OCO5)c1OC.[Cl-] has cell number reaching or exceeding 100?
1

Is it the case that CC(O)C(C)OC(=O)C1CC2c3cccc4c3c(cn4C(C)C)CC2N(C)C1.O=C(O)C=CC(=O)O (stereo unspecified) [LY-53,857 maleate] has cell number reaching or exceeding 100?
1

Is it the case that Fc1cc(F)c2c(c1)C1C=CCC1C(c1cccnc1)N2 (stereo unspecified) has cell number reaching or exceeding 100?
0

Is it the case that C=CCN1CCC23c4c5ccc(O)c4OC2C(=NN=C2CCC4(O)C6Cc7ccc(O)c8c7C4(CCN6CC=C)C2O8)CCC3(O)C1C5.Cl.Cl (stereo unspecified) [Naloxonazine dihydrochloride] has cell number reaching or exceeding 100?
0

Is it the case that CCCCCC1OC1CC=CCCCCCCCC(=O)O (stereo unspecified) has cell number reaching or exceeding 100?
1

* * *

- Test system: HCC1569
- assay-protocol: H1.0 immunofluorescence intensity relative to DMSO (% of DMSO); higher = stronger H1.0 induction, active = 140 or more
- stated-conditions: concentration: 10 µM; 24 h
Exercise: state measured H1.0 immunofluorescence intensity for each of the compounds provided.
Answers are plain numbers.

For orientation, consider the following solved cases.
compound	system-under-test	H1.0 immunofluorescence intensity
CC(N)C(O)c1ccccc1 (stereo unspecified)	HCC1569	99.8
CCCCCCCCCCCCCC(=O)OC1C(C)C2(O)C(C=C(CO)CC3(O)C(=O)C(C)=CC32)C2C(C)(C)C12OC(C)=O (stereo not drawn) [4alpha-Phorbol-12-myristate-13-acetate]	HCC1569	108
CC(=O)C1=C(O)C2C3c4c[nH]c5cccc(c45)CC3C(C)(C)N2C1=O (stereo unspecified)	HCC1569	101
O=C(O)CCCc1ccc(N(CCCl)CCCl)cc1	HCC1569	98.4
CN1CC(CNC(=O)OCc2ccccc2)CC2c3cccc4c3c(cn4C)CC21 (stereo unspecified)	HCC1569	120
CCCN1CCc2cccc3c2C1Cc1ccc(O)c(O)c1-3.Cl (stereo not drawn) [R(-)-Propylnorapomorphine hydrochloride]	HCC1569	105
CCN1CC2(OC(=O)c3ccccc3NC(C)=O)CCC(OC)C34C1C(CC23)C1(O)CC(OC)C2CC4C1(O)C2OC (stereo unspecified)	HCC1569	94.3
CCC1(O)C(=O)OCc2c1cc1n(c2=O)Cc2cc3ccccc3nc2-1 (stereo unspecified) [Camptothecin]	HCC1569	120

Consider the following items and state reported H1.0 immunofluorescence intensity for each.
1. CC(C)(O)C1C2OC(=O)C1C1(O)CC3OC34C(=O)OC2C14C (stereo unspecified)
2. COc1ccccc1N1CCNCC1.Cl [1-(2-Methoxyphenyl)piperazine hydrochloride]
3. CN(C)C(=O)Oc1cc(OC(=O)N(C)C)cc(C(O)CNC(C)(C)C)c1.Cl (stereo unspecified)
4. O=P([O-])(O)C(Cl)(Cl)P(=O)([O-])O.[Na+].[Na+]
5. N#CC(OC1OC(COC2OC(CO)C(O)C(O)C2O)C(O)C(O)C1O)c1ccccc1 (stereo unspecified)

[82.5, 98.8, 101, 96.4, 90.7]

* * *

- Test system: TDF
- assay-protocol: H1.0 immunofluorescence intensity relative to DMSO (% of DMSO); higher = stronger H1.0 induction, active = 120 or more
- stated-conditions: concentration: 10 µM; 24 h
readout-name: H1.0 immunofluorescence intensity
One number for each entry.

> print(dat)
                                   compound  reading
1  CCN(CC)C(=O)NC1CC2c3cccc4[nH]cc(c34)CC2N(C)C1 (stereo not drawn) [R(+)-Terguride]     91.9
2  CC(=CC=CC(C)C(=O)O)C1CNC(C(=O)O)C1CC(=O)O (centres undefined)     93.6
3  COc1ccc2c(c1OC)C(=O)OC2C1c2cc3c(cc2CCN1C)OCO3 (single isomer, unassigned; (+)) [(+)-Hydrastine]     96.4

Read the next record carefully.
The reported H1.0 immunofluorescence intensity of the compound Cl.Cl.Clc1cccc(N2CCNCC2)c1 [1-(3-Chlorophenyl)piperazine dihydrochloride] was 105

* * *

- System: HCC1569
- assay-protocol: H1.0 immunofluorescence intensity relative to DMSO (% of DMSO); higher = stronger H1.0 induction, active = 140 or more
- stated-conditions: concentration: 10 µM; 24 h
H1.0 immunofluorescence intensity of 100 or higher: met. Under 100: not met.

Is it the case that COc1ccccc1CN[C@H]1C2CCN(CC2)[C@H]1C(c1ccccc1)c1ccccc1 has H1.0 immunofluorescence intensity reaching or exceeding 100?
met

Is it the case that CC(C)c1cccc(C(C)C)c1O has H1.0 immunofluorescence intensity reaching or exceeding 100?
not met

Is it the case that CN1C2CCC1CC(O)C2 (centres undefined) has H1.0 immunofluorescence intensity reaching or exceeding 100?
not met

Is it the case that CN1C2CCC1CC(OC(c1ccccc1)c1ccccc1N)C2 (centres undefined) has H1.0 immunofluorescence intensity reaching or exceeding 100?
not met

Is it the case that CNCCc1ccc(O)c(O)c1.Cl [N-Methyldopamine hydrochloride] has H1.0 immunofluorescence intensity reaching or exceeding 100?
not met

* * *

- Tested on: TDF
- assay-protocol: H1.0 immunofluorescence intensity relative to DMSO (% of DMSO); higher = stronger H1.0 induction, active = 120 or more
- stated-conditions: concentration: 10 µM; 24 h
readout-name: H1.0 immunofluorescence intensity
Give bare numbers.

For orientation, consider the following solved cases.
> print(dat)
                                   compound                       readout.name  reading
1  CC(C)(C)c1o[nH]c(=O)c1CC(N)C(=O)O (configuration not stated)  H1.0 immunofluorescence intensity       90
2  C=C(C)C1CNC(C(=O)O)C1CC(=O)O (configuration not stated) [Kainic acid]  H1.0 immunofluorescence intensity     92.5
3  Cl.O=C(OC1CCN(CCCl)CC1)C(c1ccccc1)c1ccccc1 [4-Diphenylacetoxy-N-(2-chloroethyl)piperidine hydrochloride]  H1.0 immunofluorescence intensity     89.5
4  CCCN1CCc2cccc3c2C1Cc1ccc(O)c(O)c1-3.Cl (stereo not drawn) [R(-)-Propylnorapomorphine hydrochloride]  H1.0 immunofluorescence intensity     92.9

Consider the following items and state reported H1.0 immunofluorescence intensity for each.
1. Br.CN1C2CC(OC(=O)C(CO)c3ccccc3)CC1C1OC12 (single isomer, unassigned; (-)) [(-)-Scopolamine hydrobromide]
2. CNCC(O)c1ccc(O)cc1 (racemic)

[97.6, 91]

Consider the following items and state reported H1.0 immunofluorescence intensity for each.
1. COc1ccc2c(c1)[nH]c1c(C)nccc12 [Harmine]
2. Cl.Cl.Cn1cnc(CCN)c1 [1-Methylhistamine dihydrochloride]
3. COc1ccc2c(c1O)-c1c(OC)c(OC)cc3c1C(C2)N(C)CC3.Cl (single isomer, unassigned; (+)) [(+)-Isocorydine hydrochloride]
4. CC12CCC(O)CC1CCC1C2CCC2(C)C(c3ccc(=O)oc3)CCC12O (configuration not stated) [Bufalin]

99.7
86.4
94.5
114
